target: CcrA (Bacteroides fragilis); test: 1H, […] HSQC NMR titration, chemical shift perturbation, fast exchange; format: binding
METRIC_NAME: Kd
Reply with the number and its unit after it.

> print(dat)
                         chemical.structure  measured.result
1  O=C(CSc1nnc(-c2ccccc2C(=O)O)[nH]1)Nc1ccccc1            34 µM

Consider the record given below.
Query: Please state recorded Kd (tested on CcrA (Bacteroides fragilis)) of O=C(CSc1nnc(-c2ccccc2C(=O)O)[nH]1)Nc1nc2ccccc2s1
Reply: 11 µM

###

target: CcrA (Bacteroides fragilis, UniProt P25910); test: 1H, […] HSQC NMR titration, slow exchange (relative peak intensities); assay type: binding
Sequence (P25910 19-249): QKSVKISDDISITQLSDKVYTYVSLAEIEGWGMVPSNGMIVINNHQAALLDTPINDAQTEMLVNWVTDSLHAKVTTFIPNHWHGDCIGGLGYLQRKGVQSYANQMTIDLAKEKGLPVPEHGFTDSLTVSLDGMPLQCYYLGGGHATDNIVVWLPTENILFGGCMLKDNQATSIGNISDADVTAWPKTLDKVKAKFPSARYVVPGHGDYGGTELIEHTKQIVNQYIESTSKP
METRIC_NAME: Kd

Query: Please state recorded Kd (tested on CcrA (Bacteroides fragilis, UniProt P25910)) of O=C(CSc1nnc(-c2ccccc2C(=O)O)[nH]1)Nc1ccc(Cl)cc1
Reply: ~2.3 µM
